Origin of values: paper PMC7113770

# Tested on: Huh7.5 cells
# method summary: MTT cell viability assay in transfected Huh7.5
# Assay type: cell-based, human
# condition: read-out: CC50 (CI), 42 h treatment, Huh7.5, CI 95%
observable: CC50 (nM)
All answers are understood in nM, so give the number only.

Exercise: Return value of CC50 for input `COC(=O)[C@H]1[C@@H](O)[C@@]2(O)c3c(OC)cc(O[C@@H]4O[C@@H]([C@H](O)CO)CO[C@H]4OC)cc3O[C@@]2(c2ccc(OC)cc2)[C@@H]1c1ccccc1` , no commentary.
Solution: 24.8

---

# System: HEVp6 replicon (Kernow-C1 p6, gt3)
# method summary: HEVp6 subgenomic replicon
# condition: read-out: IC50 (CI); 42 h treatment, Huh7.5, CI 95%
observable: IC50 (nM)
All answers are understood in nM, so give the number only.

Exercise: Return value of IC50 for input `COC(=O)[C@H]1[C@@H](O)[C@@]2(O)c3c(OC)cc(O[C@@H]4O[C@@H]([C@H](O)CO)CO[C@H]4OC)cc3O[C@@]2(c2ccc(OC)cc2)[C@@H]1c1ccccc1` , no commentary.
Solution: 2.87

---

# method summary: MTT cell viability assay in transfected Huh7.5
# Type: cell-based, human
# condition: human, transfected Huh7.5 cells, CC50 (CI), 42 h treatment, Huh7.5, CI 95%
observable: CC50 at 42 h (nM)
All answers are understood in nM, so give the number only.

Exercise: Return value of CC50 at 42 h for input `COC(=O)[C@H]1[C@@H](O)[C@@]2(O)c3c(OC)cc(O[C@@H]4O[C@@H]([C@H](O)CO)CO[C@H]4OC)cc3O[C@@]2(c2ccc(OC)cc2)[C@@H]1c1ccccc1` , no commentary.
Solution: 24.8

---

# Tested on: different HEV constructs
# method summary: Different HEV subgenomic replicons in Huh7.5
# condition: Hepatitis E virus, Huh7.5, 24 h, read-out: IC50 for the different HEV constructs
observable: IC50

Exercise: Fill in IC50 for `COC(=O)[C@H]1[C@@H](O)[C@@]2(O)c3c(OC)cc(O[C@@H]4O[C@@H]([C@H](O)CO)CO[C@H]4OC)cc3O[C@@]2(c2ccc(OC)cc2)[C@@H]1c1ccccc1` tested with different HEV constructs.
Solution: 4 to 6.6 nM
